Each recorded value in this set is attributed to patent US20250257130A1.

biological target: T1, Human ROR1-ECD-his (Acro Biosystems RO1-H522y) (human, UniProt Q01973 30-406); experiment: BLI, ROR1-His on HIS1K sensor, antibody in solution
T1 construct: extracellular domain; bought protein; also called hROR1-ECD-his; hu-ROR1-ECD-his
T1 sequence (Q01973 30-406): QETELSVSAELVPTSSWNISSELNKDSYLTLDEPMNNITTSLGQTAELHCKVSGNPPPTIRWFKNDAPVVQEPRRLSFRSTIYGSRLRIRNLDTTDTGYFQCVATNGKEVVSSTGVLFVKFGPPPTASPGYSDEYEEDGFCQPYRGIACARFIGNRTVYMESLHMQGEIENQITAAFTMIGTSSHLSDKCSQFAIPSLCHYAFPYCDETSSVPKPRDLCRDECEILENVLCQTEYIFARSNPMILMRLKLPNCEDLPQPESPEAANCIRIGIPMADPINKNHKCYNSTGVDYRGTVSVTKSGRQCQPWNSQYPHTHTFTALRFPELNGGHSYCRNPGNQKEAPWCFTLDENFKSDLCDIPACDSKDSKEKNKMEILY
Measured Property: kon

Binder | Endpoint Result
PR303189 (antibody, human IgG1, V domains shown, HCAb (heavy chain-only, human IgG1 Fc), no light chain) VH: EVQLVESGGGLVKPGGSLRLSCAASGFNLSDSYMSWIRQAPGKGLEWVSCISSSGSTIYYADSVKGRFTVSRDNAKNSLYLQMNHLRAEDTALYYCARDCVIGIRDDSDIWGQGTMVTVSS | 6.46e+06 M⁻¹ s⁻¹
PR303201 (antibody, human IgG1, V domains shown, HCAb (heavy chain-only, human IgG1 Fc), no light chain) VH: EVQLLESGGGLVQPGGSLRLSCAASGFTFSGNAMSWVRQAPGKGLEWVSAISGSGDKTYYAASVKGRFTISRDNSNNTVYLQMNSLRAEDTAVYYCEKGAFRTTMDYWGQGTLVTVSS | 1.28e+06 M⁻¹ s⁻¹
PR303147 (antibody, human IgG1, V domains shown, HCAb (heavy chain-only, human IgG1 Fc), no light chain) VH: EVQLVESGGGLVQPGGSLRLSCAASGFTFSNFWMYWVRQAPGKGLVWVSRINSDGSSTNYADSVKGRFTISRDNAKNTLYLQMNSLRVEDTAVYSCAREGSGWYEDFDYWGQGTLVTVSS | 1.47e+06 M⁻¹ s⁻¹
PR303155 (antibody, human IgG1, V domains shown, HCAb (heavy chain-only, human IgG1 Fc), no light chain) VH: EVQLVESGGGLVKPGGSLRLSCAASGFTLSDYYMSWIRQAPGKGLEWISYISSNGSTIYYADSVKGRFTISRDNARNSLYLQMNSLRAEDTALYYCARDVSSGWYEDFDYWGQGTLVTVSS | 492000 M⁻¹ s⁻¹
PR303145 (antibody, human IgG1, V domains shown, HCAb (heavy chain-only, human IgG1 Fc), no light chain) VH: QVQLVESGGGLVKPGGSLRISCAASGFTFSNYNMSWIRQAPGKGVEWVSHISGSGRTIYYAESVKGRFTISRDNAKNSLYLQMNSLRAEDTAMYYCARDLSSGWYEDFDYWGQGTLVTVSS | 278000 M⁻¹ s⁻¹
PR303199 (antibody, human IgG1, V domains shown, HCAb (heavy chain-only, human IgG1 Fc), no light chain) VH: EVQLVESGGGLVKPGGSLRLSCAASGFTFSDYYMSWIRQAPGKGLEWIAYISSSGSTIYYADSVKGRFTISRDNAKNSLYLQMNSLRAEDTAIYYCAREYYGSENYDHFDYWGQGTLVTVSS | 123000 M⁻¹ s⁻¹
PR303125 (antibody, human IgG1, V domains shown, HCAb (heavy chain-only, human IgG1 Fc), no light chain) VH: EVQLLESGGGLVQPGGSLRLSCAASGFTFSSHAMSWVRQAPGKGLEWVSAISGSGDSTHYAASVKGRFTISRDNSKNTLYLQMNSLRAEDTAVYYCETLLRFLESLGNDGFKIWGQGTMVTVSS | 165000 M⁻¹ s⁻¹
PR303191 (antibody, human IgG1, V domains shown, HCAb (heavy chain-only, human IgG1 Fc), no light chain) VH: EVQLLESGGGLVQPGGSLRLSCAASGFIFGSYAMSWVRQAPGKGLEWVSGISGTGGNTYYADSVKGRFTISRDNSKNTLYLQMNSLRAEDTAVYFCERGITIHGVVIIPPDYRGQGTLVTVSS | 2.9e+06 M⁻¹ s⁻¹
